Values from patent US20080269251A1

Biological target: human adrenergic-α2A receptor (Homo sapiens)
Construct: expressed in transfected cells; host or cells: CHO cells, stably transfected; membrane preparation
Sequence (P08913 1-465): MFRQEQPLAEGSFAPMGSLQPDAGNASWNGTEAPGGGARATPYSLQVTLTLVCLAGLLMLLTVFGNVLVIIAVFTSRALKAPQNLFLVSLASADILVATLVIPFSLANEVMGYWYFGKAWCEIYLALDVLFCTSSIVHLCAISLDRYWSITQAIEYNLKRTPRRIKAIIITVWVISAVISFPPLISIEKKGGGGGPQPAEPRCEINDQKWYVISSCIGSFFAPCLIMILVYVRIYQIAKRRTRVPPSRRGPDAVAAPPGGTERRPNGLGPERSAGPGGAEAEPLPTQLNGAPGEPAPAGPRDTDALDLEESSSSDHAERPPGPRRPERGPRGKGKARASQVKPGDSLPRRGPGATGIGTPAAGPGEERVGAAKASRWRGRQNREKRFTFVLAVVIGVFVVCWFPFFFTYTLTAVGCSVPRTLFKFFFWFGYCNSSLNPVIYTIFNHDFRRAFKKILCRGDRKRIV
Test: Radioligand binding experiment for hα2A-adrenergic receptor ([3H]raulwolscine)
Settings: [3H]raulwolscine 1 nM, 60 minutes at 25° C.; read-out: h-α2A pIC50 (converted)
Experimental: The interaction of the compounds of Formula (I) with α2C-adrenoceptor receptors was assessed in in vitro radioligand binding experiments. […] When equilibrium of binding is reached, the receptor bound radioactivity is separated from the non-bound radioactivity, and the receptor- or transporter-bound activity is counted. The interaction of the test compounds with the receptor is assessed in competition binding experiments. […]
readout_type: IC50 (nM)
Numbers only; they are read as nM.

Q) GET /values?readout=IC50&item= "O=C(CCc1ccccc1)NCc1ccc(-n2ccnc(NC3CCN(Cc4ccc5ccccc5c4)CC3)c2=O)cc1"
A) 251

Q) Same read-out for "O=c1c(NC2CCN(Cc3ccc4ccccc4c3)CC2)nccn1-c1ccc(CN2CCC(F)CC2)c(F)c1" ?
A) 63.1

Q) Same read-out for "CC(C)(Cc1ccccc1)NC(=O)Cn1ccnc(NC2CCN(Cc3ccc4ccccc4c3)CC2)c1=O" ?
A) 398

Q) Same read-out for "O=c1[nH]c(-c2cccc(CN3CCOCC3)c2)c(Cl)nc1NC1CCN(Cc2ccc3ccccc3c2)CC1" ?
A) 1580

Q) Same read-out for "O=C(CCN1CCOCC1)Nc1ccc(-n2ccnc(NC3CCN(Cc4ccc5ccccc5c4)CC3)c2=O)cc1" ?
A) 316

Q) Same read-out for "O=c1c(NC2CCN(Cc3ccc4ccccc4c3)CC2)nccn1-c1ccc(NCCN2CCOCC2)cc1" ?
A) 316

Q) Same read-out for "O=c1c(NC2CCN(Cc3ccc4ncccc4c3)CC2)nccn1CCCOc1ccccc1" ?
A) 501

Q) Same read-out for "CN(C)C(=O)CCC(=O)NCc1ccc(-n2ccnc(NC3CCN(Cc4ccc5ccccc5c4)CC3)c2=O)cc1" ?
A) 316

Q) Same read-out for "CCOC(CN(Cc1ccccc1)C(=O)Cn1ccnc(NC2CCN(Cc3ccc4ccccc4c3)CC2)c1=O)OCC" ?
A) 398

Q) Same read-out for "O=C(Cn1ccnc(NC2CCN(Cc3ccc4ccccc4c3)CC2)c1=O)N(Cc1ccccc1)c1ccccc1" ?
A) 200

Q) Same read-out for "O=c1c(N2CCN(Cc3cccc4ccccc34)CC2)nccn1Cc1ccccc1" ?
A) 501

Q) Same read-out for "O=c1c(NC2CCN(Cc3ccc4ccccc4c3)CC2)nccn1CCCC(c1ccc(F)cc1)c1ccc(F)cc1" ?
A) 316

Q) Same read-out for "CC(C)(C)OC(=O)NCCCn1ccnc(NC2CCN(Cc3ccc4ccccc4c3)CC2)c1=O" ?
A) 200

Q) Same read-out for "O=c1c(NC2CCN(Cc3ccc4ccccc4c3)CC2)nccn1-c1ccc(CN2CCCCC2)cc1" ?
A) 200

Q) Same read-out for "O=C(CCN(c1nccn(CCC(=O)c2ccccc2)c1=O)C1CCN(Cc2ccc3ccccc3c2)CC1)c1ccccc1" ?
A) 251

Q) Same read-out for "COC(CCn1ccnc(NC2CCN(Cc3ccc4ccccc4c3)CC2)c1=O)OC" ?
A) 1000

Q) Same read-out for "CCCNCc1ccc(-n2ccnc(NC3CCN(Cc4ccc5ccccc5c4)CC3)c2=O)cc1" ?
A) 251

Q) Same read-out for "O=C(NCCCn1ccnc(NC2CCN(Cc3ccc4ccccc4c3)CC2)c1=O)c1ccccc1" ?
A) 794

Q) Same read-out for "O=C1c2ccccc2C(=O)N1C/C=C/Cn1ccnc(NC2CCN(Cc3ccc4ccccc4c3)CC2)c1=O" ?
A) 79.4

Q) Same read-out for "CCOC(=O)CCCCn1ccnc(NC2CCN(Cc3ccc4ccccc4c3)CC2)c1=O" ?
A) 79.4

Q) Same read-out for "COCCNC(=O)NCc1ccc(-n2ccnc(NC3CCN(Cc4ccc5ccccc5c4)CC3)c2=O)cc1" ?
A) 398

Q) Same read-out for "O=c1c(NC2CCN(Cc3ccc4ccccc4c3)CC2)nccn1CCCO" ?
A) 631

Q) Same read-out for "O=C(Cn1ccnc(NC2CCN(Cc3ccc4ccccc4c3)CC2)c1=O)N1CCN(Cc2ccccc2)CC1" ?
A) 398

Q) Same read-out for "O=C(Cn1ccnc(NC2CCN(Cc3ccc4ccccc4c3)CC2)c1=O)NCC(c1ccccc1)c1ccccc1" ?
A) 398

Q) Same read-out for "O=c1[nH]c(-c2cccc(Br)c2)c(Cl)nc1NC1CCN(Cc2ccc3ccccc3c2)CC1" ?
A) 1580

Q) Same read-out for "O=C(CCn1ccnc(NC2CCN(Cc3ccc4ccccc4c3)CC2)c1=O)c1ccccc1" ?
A) 100
